target: T1, Cyno TIGIT-Fc (cynomolgus, UniProt A0A7N9I9V4 89-209); test: ForteBio BLI, Fab KD, monovalent
T1 construct: not shown: Fc part
T1 sequence (A0A7N9I9V4 entry or part of it): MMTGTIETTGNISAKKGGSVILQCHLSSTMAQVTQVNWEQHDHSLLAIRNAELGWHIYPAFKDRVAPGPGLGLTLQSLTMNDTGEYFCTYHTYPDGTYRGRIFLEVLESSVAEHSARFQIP
result-type: Kd (nM)
Answer format: numeric, nM implied, no suffix.

binder	Kd [nM]
Fab of anti-TIGIT clone 32931 (Fab, V domains shown, Fab) VH: QLQLQESGPGLVKPSETLSLTCTVSGGSISSGSYYLAWIRQPPGKGLEWIGSIFRSGSTYYNPSLESRVTISVDTSKNQFSLKLSSVTAADTAVYYCAIEGANFKDFGYVAFDIWGQGTTVTVSS VL: EIVMTQSPATLSVSPGERATLSCRASKSVSSNLAWYQQKPGQAPRLLIYFASTRATGIPARFSGSGSGTEFTLTISSLQSEDFAVYYCQQTSPWPRTFGGGTKVEIK	1.97
Fab of anti-TIGIT clone 29523 (Fab, V domains shown) VH: EVQLVESGGGVVQPGRSLRLSCAASGFTFGSYYMHWVRQAPGKGLEWVAVIWPDGSNKLYADSVKGRFTISRDNSKNTLYLQMNSLRAEDTALYYCAKPVPKSRALDVWGQGTMVTVSS VL: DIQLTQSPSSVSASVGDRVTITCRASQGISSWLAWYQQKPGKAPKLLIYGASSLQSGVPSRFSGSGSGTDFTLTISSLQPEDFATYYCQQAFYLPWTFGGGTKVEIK	27.9
Fab of anti-TIGIT clone 29494 (Fab, V domains shown) VH: QVQLQESGPGLVKPSETLSLTCTVSGGSISSGSYYLAWIRQPPGKGLEWIGSIFRSGSTYYNPSLESRVTISVDTSKNQFSLKLSSVTAADTAVYYCAIEGANFKDFGYVAFDIWGQGTMVTVSS VL: EIVMTQSPATLSVSPGERATLSCRASQSVSSNLAWYQQKPGQAPRLLIYGASTRATGIPARFSGSGSGTEFTLTISSLQSEDFAVYYCQQSPPWPRTFGGGTKVEIK	18.6
Fab of anti-TIGIT clone 29527 (Fab, V domains shown) VH: QVQLVESGGGVVQPGRSLRLSCAASGFTFSSSYMHWVRQAPGKGLEWVAVIGADGSNKYYADSVEGRFTISRDNSKNTLYLQMNSLRAEDTALYYCAKPVPRRRGLDVWGQGTMVTVSS VL: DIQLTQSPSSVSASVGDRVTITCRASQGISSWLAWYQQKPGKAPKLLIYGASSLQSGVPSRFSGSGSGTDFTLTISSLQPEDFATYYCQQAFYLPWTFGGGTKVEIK	17.6
Fab of anti-TIGIT clone 29499 (Fab, V domains shown) VH: QLQLQESGPGLVKPSETLSLTCTVSGGSISSSRYYWAWIRQPPGKGLEWIGSIGTSGSTYYNPSLKSRVTISVDTSKNQFSLKLSSVTATDTAVYYCAIEGANFRDFGYVAFDIWGQGTMVTVSS VL: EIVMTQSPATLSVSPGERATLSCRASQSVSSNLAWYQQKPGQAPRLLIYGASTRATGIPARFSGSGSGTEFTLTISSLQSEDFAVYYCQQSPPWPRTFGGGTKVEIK	14.5

Kindly review the next binder as well.
[Q] Which Kd value is on record for Fab of anti-TIGIT clone 26521 (Fab, V domains shown) VH: QVQLVQSGAEVKKPGSSVKVSCKASGGTFSSYAISWVRQAPGQGLEWMGGIIPIFGTANYAQKFQGRVTITADESTSTAYMELSSLRSEDTAVYYCARLHLGSSAYYGMDVWGQGTTVTVSS VL: DIQMTQSPSSLSASVGDRVTITCRASQSISSYLNWYQQKPGKAPKLLIYAASSLQSGVPSRFSGSGSGTDFTLTISSLQPEDFATYYCQQRYVFPPTFGGGTKVEIK ?
[A] 149
